# SYSTEM_TESTED: human CB1 receptor (Homo sapiens, UniProt P21554)
# Sequence (P21554 whole entry): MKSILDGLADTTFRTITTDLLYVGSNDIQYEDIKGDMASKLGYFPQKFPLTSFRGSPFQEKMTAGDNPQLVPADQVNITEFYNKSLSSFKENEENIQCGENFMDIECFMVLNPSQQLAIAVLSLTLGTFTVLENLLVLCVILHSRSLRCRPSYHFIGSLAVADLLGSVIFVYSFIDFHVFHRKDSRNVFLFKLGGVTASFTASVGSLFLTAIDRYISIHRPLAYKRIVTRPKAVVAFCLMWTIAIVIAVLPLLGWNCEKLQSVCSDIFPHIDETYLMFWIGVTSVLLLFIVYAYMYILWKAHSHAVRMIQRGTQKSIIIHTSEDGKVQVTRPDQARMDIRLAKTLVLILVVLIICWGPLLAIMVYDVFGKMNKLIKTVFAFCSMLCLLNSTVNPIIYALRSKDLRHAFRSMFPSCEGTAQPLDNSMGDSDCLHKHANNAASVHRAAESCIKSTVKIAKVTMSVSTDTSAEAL
# MEASUREMENT_NOTES: [35S] GTPγS binding on membranes of CHO cells expressing the human CB1 receptor (agonism)
# Format: biochemical
# Parameters: expressed in transfected cells; membrane preparation
# CONDITION_PARAMETERS: human CB1, CHO cell membranes, read-out: GTPγS EC50
pEC50: −log10 of the molar value.
pEC50 values, listed per item
PROPERTY: pEC50

| COMPOUND | NUMERIC_RESULT |
| --- | --- |
| CC(C)(C)[C@H](NC(=O)c1nn(Cc2ccc(C#N)cc2)c2c(F)cccc12)C(=O)NCc1nnc(C(N)=O)o1 | 7.30 |
| CC(C)(C)[C@H](NC(=O)c1nn(Cc2ccc(F)cc2)c2ccccc12)C(=O)N1CCN(S(C)(=O)=O)CC1 | 7.79 |
| CC(C)(C)C(NC(=O)c1nn(Cc2ccc(F)cc2)c2ccccc12)C(=O)NCc1noc(C(N)=O)n1 (stereo not drawn) | 8.77 |
